Data provenance is the supplement of paper PMC11908140.

B1: library; numbered along this chain (parent)
chain: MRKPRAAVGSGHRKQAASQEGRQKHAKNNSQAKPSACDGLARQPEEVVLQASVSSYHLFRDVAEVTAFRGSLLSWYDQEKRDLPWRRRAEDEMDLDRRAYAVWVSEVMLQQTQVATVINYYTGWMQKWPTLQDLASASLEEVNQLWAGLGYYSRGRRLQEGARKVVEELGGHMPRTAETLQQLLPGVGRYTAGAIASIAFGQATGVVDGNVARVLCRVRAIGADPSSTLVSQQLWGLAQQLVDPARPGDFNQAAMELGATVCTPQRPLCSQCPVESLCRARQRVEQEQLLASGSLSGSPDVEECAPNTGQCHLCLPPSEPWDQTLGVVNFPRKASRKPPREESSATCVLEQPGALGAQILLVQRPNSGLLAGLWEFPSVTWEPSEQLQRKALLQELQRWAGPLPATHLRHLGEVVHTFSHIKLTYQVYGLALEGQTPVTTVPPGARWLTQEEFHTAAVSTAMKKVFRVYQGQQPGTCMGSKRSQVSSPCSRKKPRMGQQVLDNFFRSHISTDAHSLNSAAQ

Variants of: B1
Test: 8OG:A repair function score (normalized; synonymous = 0, nonsense = -1) (normalized log-likelihood score); higher = more repair activity (WT-like);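 also: cells sorted at 72 h after reporter transfection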
Settings: with 8OG:A DNA repair reporter (GFP) in HEK-293 MUTYH KO cells
# label = bin(measured 8OG:A repair function score), where bins are bottom bin = under -0.4, middle bin = from -0.4 up to -0.02, top bin = -0.02 and over

Recorded results for 3 variants are shown here.
>>> class_name("K390W")
"bottom bin"
>>> class_name("E167V")
"middle bin"
>>> class_name("R81V")
"bottom bin"

Assign a category based on measured 8OG:A repair function score for E178N and give only the class name.
top bin

Assign a category based on measured 8OG:A repair function score for L49S and give only the class name.
top bin

Assign a category based on measured 8OG:A repair function score for S480R and give only the class name.
top bin

Assign a category based on measured 8OG:A repair function score for G209D and give only the class name.
bottom bin

Assign a category based on measured 8OG:A repair function score for S227T and give only the class name.
top bin

Assign a category based on measured 8OG:A repair function score for S419I and give only the class name.
bottom bin

Assign a category based on measured 8OG:A repair function score for L40C and give only the class name.
top bin

Assign a category based on measured 8OG:A repair function score for T324H and give only the class name.
middle bin

Assign a category based on measured 8OG:A repair function score for P442D and give only the class name.
middle bin
